System: HCT-116 colon
Assay: NCI tumour cell line growth inhibition, 48 h
reported-metric: TGI

                                   compound  measured_value
0  O=C(c1cc(=O)c2ccc(O)cc2o1)c1ccc(Cl)cc1Cl       > 54.1 µM
1  O=C(ON=c1c2ccccc2ccc2ccccc12)c1cc([N+](=O)[O-])cc([N+](=O)[O-])c1        > 100 µM
2                                     COCCO        > 100 µM
3  COc1ccc(/C=C2/C(=O)N(C(=O)c3ccccc3O)N=C2C)cc1OC        > 100 µM
4  CC(=O)OC1C=CC2CCN3C(=O)c4cc5c(cc4[C@H]1C23)OCO5 (stereo partly specified)        > 100 µM
5                      ON=C1CCCCC(=NO)CCCC1        > 100 µM

---

Documented TGI across a set of molecules
System: SF-268 CNS
Assay: NCI tumour cell line growth inhibition, 48 h
reported-metric: TGI (µM)

>>> print(df.to_string())
                                    molecule  reported_metric  uom  relation_sign  measured_value
 0  CN(c1c(Cl)cccc1Cl)S(=O)(=O)c1ccccc1[N+](=O)[O-]              TGI   µM              >             100
 1         CCCCCCN(CCCCCC)CCCNc1nccc2ccccc12              TGI   µM              =            8.51
 2  O=C(NC(=O)c1cn(CCN2CCNCC2)c(=O)[nH]c1=O)OCc1ccccc1              TGI   µM              >             100
 3  O=S(=O)(NCCNc1nccc(-c2c(-c3cccc(O)c3)nc3sccn23)n1)c1ccc(F)cc1              TGI   µM              =            42.3
 4  Clc1ccc(-c2nc3c(-c4ccc(Cl)cc4)nc(-c4ccccc4)cn3c2-c2ccc(Cl)cc2)cc1              TGI   µM              >              50
 5  O=C(NCCCN1CCN(CCCNC(=O)c2cnc3ccccc3n2)CC1)c1cnc2ccccc2n1              TGI   µM              >             100
 6  CCCc1cc(=O)oc2c(C(=O)CC(C)C)c(O)c(CC=C(C)C)c(O)c12              TGI   µM              >              50
 7               O=C(CC(=O)c1ccncc1)c1ccccc1              TGI   µM              >             100
 8  CCN(CC)CC(O)c1ccc2ccc3ccccc3c2c1 (stereo not given)              TGI   µM              =            34.7
 9  O=C(CCCn1c2c(sc3ncccc32)c(=O)n2nnc(-c3ccccc3)c12)NCCc1cnc[nH]1              TGI   µM              =            29.1
10    Nc1nc(N)c2cc(CNc3ccc(Cl)c(Cl)c3)ccc2n1              TGI   µM              =            1.85
11          CC/C(=N\Nc1nc2ccccc2n1C)c1ccccn1              TGI   µM              =            11.1
12              NCCCNCCSSCc1ccccc1CSSCCNCCCN              TGI   µM              >             100
13  O=C1C(NS(=O)(=O)c2ccccc2)=C(n2cnc3ccccc32)C(=O)c2ccccc21              TGI   µM              >             100
14  CC(=O)OC1(C#N)CC2OC1C1C2N1C(=O)c1ccccc1 (stereo not given)              TGI   µM              >             100

---

Recorded TGI, one value per entry.
Tested on: UO-31 renal
Assay: NCI tumour cell line growth inhibition, 48 h
reported-metric: TGI

                                   molecule  measured_value
0    Cc1c2c(c(C)c3c[n+](C)ccc13)Oc1ccccc1O2        > 100 µM
1  COc1cc(/C=C2\C(=O)N(c3cccc(Cl)c3)C(c3ccccc3)S2(=O)=O)cc(OC)c1OC (stereo not drawn)        > 100 µM
2  Cc1ccnc(NS(=O)(=O)c2ccc(NC(=O)c3ccc4nc5ccccc5c(Nc5ccc(S(=O)(=O)Nc6nccc(C)n6)cc5)c4c3)cc2)n1        > 100 µM
3  Cc1cc2c3ccccc3n(C)c2c2c1C(=O)c1ccccc1C2=O         27.4 µM
4  CCOc1ccccc1NC(=O)C(=O)CC(=O)C1=C(C)Nc2ccccc2S1        > 100 µM
5  CC1=C(C(=O)Nc2cccc(C(F)(F)F)c2)C(c2ccc(O)cc2)C(C(=O)Nc2cccc(C(F)(F)F)c2)=C(C)N1         53.5 µM
6  CC1=C(C)C(=O)OC(C(C)(O)C2(O)CCC3(O)C4CC(Cl)C5(O)C(O)C=CC(=O)C5(C)C4CCC32C)C1 (stereo not drawn)        > 100 µM
7  O=C(Oc1cccnc1)c1ccccc1Nc1ccnc(C(F)(F)F)c1       > 87.3 µM

---

Tested on: MOLT-4 leukemia
Experiment: NCI tumour cell line growth inhibition, 48 h

compound	tested-system	TGI
COCCc1c(C)c(C#N)c2n(C)c3ccccc3n2c1=O	MOLT-4 leukemia	> 10 µM
O=C(CC(=O)N1N=C(n2ccc3ccccc32)CC1c1ccccc1)Nc1cccc(Cl)c1 (stereo not given)	MOLT-4 leukemia	> 100 µM
Cc1cccc2c1Oc1cc(Cl)ccc1C2NC(=O)CCN1CCCCC1 (stereo not given)	MOLT-4 leukemia	34.3 µM
Cc1csc2c(P(=O)(OC(C)C)OC(C)C)c(-c3ccccc3)cn12	MOLT-4 leukemia	31.4 µM
COc1ccc(/C=C2/C(=O)N(C(=O)c3ccccc3O)N=C2C)cc1OC	MOLT-4 leukemia	> 100 µM
CCOc1ccc(Cc2nccc3cc(OCC)c(OCC)cc23)cc1OCC	MOLT-4 leukemia	34.2 µM
COc1cc(CNC(=O)/C=C/C=C/c2ccc3c(c2)OCO3)ccc1OCc1cn(-c2ccc(Cl)c(Cl)c2)nn1	MOLT-4 leukemia	2.67 µM
CCOC(=O)C(Cc1ccc2c(c1)CCC2)(Cc1ccc2c(c1)CCC2)C(=O)OCC	MOLT-4 leukemia	78.4 µM
O=C1/C(=C/c2ccc(O)cc2)NC(=S)N1CN1CCCCC1	MOLT-4 leukemia	> 100 µM
O=[N+]([O-])c1cccc(C2SCc3nc4ccccc4n32)c1 (stereo not given)	MOLT-4 leukemia	> 100 µM
COC1=C(OC)C(=O)C(/C=C(\C)C(=O)O)=C(C)C1=O	MOLT-4 leukemia	> 100 µM
C[N+](C)(C)CCOP(=O)(O)OP(=O)([O-])OCC1CCC(n2ccc(N)nc2=O)O1 (stereo not given)	MOLT-4 leukemia	> 100 µM
C1CNCCN2CCCNCCN(C1)CC2	MOLT-4 leukemia	> 100 µM
O=C(N[C@H](c1ccc(Cl)c(Cl)c1)C1CNC1)c1ccc2cnccc2c1	MOLT-4 leukemia	5.67 µM
O=C1Cc2cc(CCn3ccnc3)c(Cl)cc2N1	MOLT-4 leukemia	> 100 µM
NC(CCCCCP(=O)(O)O)C(=O)O (stereo not given)	MOLT-4 leukemia	> 100 µM
CCN(CC)CCN1c2ccccc2Sc2ccc3ccccc3c21	MOLT-4 leukemia	7.66 µM
c1cncc(CNc2ccccc2-c2nnc(Nc3ccc4c(c3)OCO4)o2)c1	MOLT-4 leukemia	> 100 µM
Cc1ccc(-n2c3c(c4c(CN5CCCCC5)c(O)ccc42)CCc2ccccc2C3=O)cc1	MOLT-4 leukemia	> 100 µM
N#Cc1ccc(Oc2nccc(-c3c(-c4ccc(F)cc4)ncn3C3CCNCC3)n2)cc1	MOLT-4 leukemia	20.8 µM
OC(c1cc(C(O)(C(F)(F)F)C(F)(F)F)ncn1)(C(F)(F)F)C(F)(F)F	MOLT-4 leukemia	> 10 µM
CSC1=N/C(=C\c2cccs2)C(=O)N1CN1CCOCC1	MOLT-4 leukemia	> 100 µM
CC(C)(O)[C@@H]1CCC(C)([C@H]2[C@@H](O)CC3(C)C4CC(OC5OC(CO)C(O)C(O)C5O)C5C(C)(C)[C@@H](OC6OCC(O)C(O)C6O)CC[C@@]56C[C@@]46CC[C@]23C)O1 (stereo not given in full)	MOLT-4 leukemia	> 100 µM
C/C=C/C=N/N(c1nnc(-c2ccccc2)c(-c2ccccc2)n1)S(=O)(=O)c1ccc(C)cc1	MOLT-4 leukemia	26.6 µM
CCOP(=O)(CCP(=O)(OCC)OCC)OCC.C[CH2][Sn]([Cl])([Cl])[CH2]C	MOLT-4 leukemia	> 100 µM
O=C(ON=c1c2ccccc2ccc2ccccc12)c1cc([N+](=O)[O-])cc([N+](=O)[O-])c1	MOLT-4 leukemia	> 100 µM
C=CCN1C(=O)/C(=c2\sc3n(c2=O)C2C(NN=3)N(CC)C(=O)N2CC)c2ccccc21 (stereo not given)	MOLT-4 leukemia	> 100 µM
O=C(c1cc2ccccc2[nH]1)C(O)(c1cc2ccccc2[nH]1)c1cc2ccccc2[nH]1	MOLT-4 leukemia	> 246 µM
CSC1=Nc2c(c(C)c(-c3ccccc3)n2COC(CO)CO)C2=NC(=O)C(C)N12 (stereo not given)	MOLT-4 leukemia	> 100 µM
C/C(Cl)=N\OC(=O)Nc1ccc([N+](=O)[O-])cc1	MOLT-4 leukemia	3.97 µM

Numbers sourced from PubChem BioAssay (NCI).
